- system: soluble form of CD40L (Homo sapiens, UniProt P29965)
- Sequence (P29965 113-261 limits assumed): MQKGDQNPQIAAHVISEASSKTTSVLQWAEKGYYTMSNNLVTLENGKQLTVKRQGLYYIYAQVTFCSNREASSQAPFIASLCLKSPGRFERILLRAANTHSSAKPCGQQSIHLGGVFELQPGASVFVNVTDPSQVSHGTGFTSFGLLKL
pIC50: −log10 of the molar value.
measuredEndpoint: pIC50

[[record]]
compound = "O=C(NCc1cccc(-c2ccccc2)c1)c1cc(-c2cc(C(=O)NC(C(=O)O)C3CCCCC3)nc(C(=O)N3CCCC3CN3CCCC3)c2)cc(C(=O)N2CCCC2CN2CCCC2)n1 (stereo not shown) [BIO8898]"
testvalue = 4.77


Cited source for all entries: patent US20210132079A1
